Recorded kinase still bound, per cent of control, one value per entry.
target: EPHA8 (human); assay: KINOMEscan competition binding; settings: compound 10.0 µM
valueType: kinase still bound, per cent of control (%)

INSERT INTO assay_data (linenotation, reportedresult) VALUES
  ('C[C@@H](Oc1cc(-c2cnn(C3CCNCC3)c2)cnc1N)c1c(Cl)ccc(F)c1Cl', 0.2),
  ('COc1cc2ncnc(-n3nc(-c4ccccn4)nc3N)c2cc1OC', 59),
  ('COc1cc2ncn(-c3cc(OCc4ccccc4C(F)(F)F)c(C(N)=O)s3)c2cc1OC', 74),
  ('O=C(Nc1cccc(Nc2ncc(Br)c(NCCc3cnc[nH]3)n2)c1)N1CCCC1', 94),
  ('CNC(=O)c1ccc(Nc2cc(Nc3ccccc3S(=O)(=O)C(C)C)c3cc[nH]c3n2)nc1', 100),
  ('COc1ccc(N(C(=O)Oc2c(C)cccc2C)c2ccnc(Nc3ccc(N4CCN(C)CC4)cc3)n2)c(OC)c1', 0.2),
  ('Cc1n[nH]c2ccc(-c3cncc(OC[C@@H](N)Cc4c[nH]c5ccccc45)c3)cc12', 100),
  ('CNC(=O)c1cc(Oc2ccc(NC(=O)Nc3ccc(Cl)c(C(F)(F)F)c3)cc2)ccn1', 3.9),
  ('C=CC(=O)Nc1cc(-n2c(=O)ccc3cnc4ccc(-c5cn[nH]c5)cc4c32)ccc1C', 96),
  ('N#CCNC(=O)c1ccc(-c2ccnc(Nc3ccc(N4CCOCC4)cc3)n2)cc1', 83),
  ('O=C1NC(=O)/C(=C/c2ccc3nccc(-c4ccncc4)c3c2)S1', 90),
  ('CS(=O)(=O)N1CCN(Cc2cc3nc(-c4cccc5[nH]ncc45)nc(N4CCOCC4)c3s2)CC1', 100),
  ('COc1cc(N2CCN(C)CC2)ccc1Nc1ncc2c(n1)N(C)c1ccccc1C(=O)N2C', 100),
  ('NC(=O)Nc1cc(-c2cccc(F)c2)sc1C(=O)N[C@@H]1CCCNC1', 0.4);
